assay: Extrapolated AUC in BALB/c mouse at 30 mg/kg, po; assay type: ADME, organism-based; conditions: in vivo
readoutLabel: %AUCextra (%)
Numbers only, in %.

Known %AUCextra results, listed for orientation:
CC(C)c1ccc(-c2nc(CN3CCN(c4ccnc5cc(-c6cccnc6)ccc45)CC3)no2)cc1 | 0.6
c1cncc(-c2ccc3c(N4CCN(Cc5noc(C6CCCC6)n5)CC4)ccnc3c2)c1 | 0.71
CC(C)c1ccc(-c2nc(CN3CCN(c4ccnc5cc(Cl)ccc45)CC3)no2)cc1 | 1.17

# next compound below
Dear colleague, please send me the reported %AUCextra for "Cc1cccc(-c2nc(CN3CCN(c4ccnc5cc(-c6cccnc6)ccc45)CC3)no2)c1C" when you can.
0.22

* * *

experiment: Metabolic stability in human liver microsomes assessed as compound remaining at 1 uM after 30 mins in presence of G-6-P, G-6-PDH, MgCl2 and NADP+ by LC-MS/MS analysis (reference value: 100%)
readoutLabel: remaining at 0.5 h, 1 µM (%)
One number for each entry, in %.

Known remaining at 0.5 h, 1 µM results, listed for orientation:
Cc1cccc(-c2nc(CN3CCN(c4ccnc5cc(-c6cccnc6)ccc45)CC3)no2)c1C | 47.3
CC(C)c1ccc(-c2nc(CN3CCN(c4ccnc5cc(-c6cccnc6)ccc45)CC3)no2)cc1 | 56.8
CC(C)c1ccc(-c2nc(CN3CCN(c4ccnc5cc(Cl)ccc45)CC3)no2)cc1 | 67.2

# next compound below
Dear colleague, please send me the reported remaining at 0.5 h, 1 µM for "c1cncc(-c2ccc3c(N4CCN(Cc5noc(C6CCCC6)n5)CC4)ccnc3c2)c1" when you can.
54.8

* * *

assay: AUC (infinity) in BALB/c mouse at 30 mg/kg, po; assay type: ADME, organism-based; set-up: dose 30 mg/kg, time infinity, route oral; conditions: in vivo
Give AUC(0-inf) for every item shown.
Answers are plain numbers, in ng·h/mL.

Known AUC(0-inf) results, listed for orientation:
CC(C)c1ccc(-c2nc(CN3CCN(c4ccnc5cc(Cl)ccc45)CC3)no2)cc1 | 5330
c1cncc(-c2ccc3c(N4CCN(Cc5noc(C6CCCC6)n5)CC4)ccnc3c2)c1 | 20200
CC(C)c1ccc(-c2nc(CN3CCN(c4ccnc5cc(-c6cccnc6)ccc45)CC3)no2)cc1 | 11900

# next compound below
Dear colleague, please send me the reported AUC(0-inf) for "Cc1cccc(-c2nc(CN3CCN(c4ccnc5cc(-c6cccnc6)ccc45)CC3)no2)c1C" when you can.
8310

* * *

assay: Half life in BALB/c mouse at 30 mg/kg, po; format: ADME, organism-based; details: in vivo
Give half-life for every item shown.
One number for each entry, in min.

Known half-life results, listed for orientation:
CC(C)c1ccc(-c2nc(CN3CCN(c4ccnc5cc(-c6cccnc6)ccc45)CC3)no2)cc1 | 63
CC(C)c1ccc(-c2nc(CN3CCN(c4ccnc5cc(Cl)ccc45)CC3)no2)cc1 | 97.8
c1cncc(-c2ccc3c(N4CCN(Cc5noc(C6CCCC6)n5)CC4)ccnc3c2)c1 | 45

# next molecule below
Dear colleague, please send me the reported half-life for "Cc1cccc(-c2nc(CN3CCN(c4ccnc5cc(-c6cccnc6)ccc45)CC3)no2)c1C" when you can.
56.4

* * *

Give AUC(0-t) for every item shown.
test: AUClast in BALB/c mouse at 30 mg/kg, po; assay type: ADME, organism-based; set-up: dose 30 mg/kg, route oral, time 0 - last; conditions: in vivo
Answers are plain numbers, in ng·h/mL.

Cc1cccc(-c2nc(CN3CCN(c4ccnc5cc(-c6cccnc6)ccc45)CC3)no2)c1C | 8290
CC(C)c1ccc(-c2nc(CN3CCN(c4ccnc5cc(Cl)ccc45)CC3)no2)cc1 | 5270
CC(C)c1ccc(-c2nc(CN3CCN(c4ccnc5cc(-c6cccnc6)ccc45)CC3)no2)cc1 | 11900

# next molecule below
Dear colleague, please send me the reported AUC(0-t) for "c1cncc(-c2ccc3c(N4CCN(Cc5noc(C6CCCC6)n5)CC4)ccnc3c2)c1" when you can.
20000
